Source listed as patent US11332485B2.

# System: E. coli DH5α/pLBII
# test: Broth microdilution MIC assay, empty vector control strain
# Type: cell-based
# conditions-used: Escherichia coli, read-out: E. coli DH5α/pLBII Microbiological Activity (MIC)
endpoint: MIC

Q: Look up MIC of Nc1nc(C(NC(=O)c2nccs2)C(=O)N[C@H]2Cc3cccc(C(=O)O)c3OB2O)cs1 (stereo partly shown) and report it.
A: 128 to 256 µg/mL

Q: Look up MIC of Nc1nc(C(NC(=O)N2CCN(C3CC3)C(=O)C2=O)C(=O)N[C@H]2Cc3cccc(C(=O)O)c3OB2O)cs1 (stereo partly shown) and report it.
A: 32 to 64 µg/mL

Q: Look up MIC of CCCN1CCN(C(=O)NC(C(=O)N[C@H]2Cc3cccc(C(=O)O)c3OB2O)c2csc(NC(=O)OCc3ccccc3)n2)C(=O)C1=O (stereo partly shown) and report it.
A: > 512 µg/mL

Q: Look up MIC of Nc1nc(C(NC(=O)Nc2cccnc2)C(=O)N[C@H]2Cc3cccc(C(=O)O)c3OB2O)cs1 (stereo partly shown) and report it.
A: 128 to 256 µg/mL

Q: Look up MIC of CN1CCN(C(=O)NC(C(=O)N[C@H]2Cc3cccc(C(=O)O)c3OB2O)c2csc(N)n2)C(=O)C1=O (stereo partly shown) and report it.
A: 32 to 64 µg/mL

Q: Look up MIC of N[C@@H](C(=O)N[C@H]1Cc2cccc(C(=O)O)c2OB1O)c1ccccc1 and report it.
A: > 512 µg/mL

Q: Look up MIC of CCN1CCN(C(=O)N[C@H](CCC(N)=O)C(=O)N[C@H]2Cc3cccc(C(=O)O)c3OB2O)C(=O)C1=O and report it.
A: 32 to 64 µg/mL

====

# tested-system: PBP1b from Escherichia coli (Escherichia coli, UniProt P02919)
# Construct: made in house
# Sequence (P02919 whole entry): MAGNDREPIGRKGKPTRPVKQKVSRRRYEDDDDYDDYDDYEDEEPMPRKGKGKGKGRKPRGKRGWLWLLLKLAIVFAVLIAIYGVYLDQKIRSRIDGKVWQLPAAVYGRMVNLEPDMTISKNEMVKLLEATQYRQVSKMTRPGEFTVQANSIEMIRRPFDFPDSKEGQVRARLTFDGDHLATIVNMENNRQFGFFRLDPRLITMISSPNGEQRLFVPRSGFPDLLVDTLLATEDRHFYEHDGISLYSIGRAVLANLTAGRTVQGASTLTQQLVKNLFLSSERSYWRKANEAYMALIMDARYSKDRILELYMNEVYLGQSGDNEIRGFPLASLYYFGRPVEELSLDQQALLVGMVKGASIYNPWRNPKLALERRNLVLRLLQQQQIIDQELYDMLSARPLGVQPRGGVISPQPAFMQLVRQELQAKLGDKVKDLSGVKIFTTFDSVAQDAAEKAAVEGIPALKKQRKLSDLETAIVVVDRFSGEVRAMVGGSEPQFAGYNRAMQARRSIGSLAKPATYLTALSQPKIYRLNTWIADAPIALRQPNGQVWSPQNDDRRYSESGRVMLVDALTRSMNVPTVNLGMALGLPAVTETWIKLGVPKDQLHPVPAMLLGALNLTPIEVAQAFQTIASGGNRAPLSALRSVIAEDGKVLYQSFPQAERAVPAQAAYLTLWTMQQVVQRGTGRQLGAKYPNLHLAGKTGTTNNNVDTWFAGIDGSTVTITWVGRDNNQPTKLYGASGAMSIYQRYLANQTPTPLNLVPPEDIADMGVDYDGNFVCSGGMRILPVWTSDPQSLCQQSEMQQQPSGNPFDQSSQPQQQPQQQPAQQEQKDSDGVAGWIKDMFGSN
# test: Radioligand competition binding assay with 14C-labeled boronic acid probe (Example 96)
# conditions-used: 14C-labeled probe 96 at 20 μM, PBP 0.1 μM; read-out: E. coli K12 PBP1b EC50
endpoint: EC50

Q: Look up EC50 of Nc1nc(C(NS(N)(=O)=O)C(=O)N[C@H]2Cc3cccc(C(=O)O)c3OB2O)cs1 (stereo partly drawn) and report it.
A: 10 to 100 µM

Q: Look up EC50 of CCN1CCN(C(=O)N[C@@H](C(=O)N[C@H]2Cc3cccc(C(=O)O)c3OB2O)C(C)C)C(=O)C1=O and report it.
A: < 10 µM

Q: Look up EC50 of CCN1CCN(C(=O)NC(Cc2ccccc2)C(=O)N[C@H]2Cc3cccc(C(=O)O)c3OB2O)C(=O)C1=O (stereo partly drawn) and report it.
A: < 10 µM

Q: Look up EC50 of Nc1nc(C(NC(=O)N2CCN(CC3CC3)C(=O)C2=O)C(=O)N[C@H]2Cc3cccc(C(=O)O)c3OB2O)cs1 (stereo partly drawn) and report it.
A: < 10 µM

Q: Look up EC50 of CCN1CCN(C(=O)NC(C(=O)N[C@H]2Cc3cccc(C(=O)O)c3OB2O)c2csc(N)n2)C(=O)C1=O (stereo partly drawn) and report it.
A: < 10 µM

Q: Look up EC50 of CC1(C)S[C@@H]2[C@H](NC(=O)[C@H](N)c3ccccc3)C(=O)N2[C@H]1C(=O)O [ampicillin, reference compound] and report it.
A: < 10 µM

Q: Look up EC50 of CCN1CCN(C(=O)N[C@H](C(=O)N[C@H]2Cc3cccc(C(=O)O)c3OB2O)[C@H](O)CO)C(=O)C1=O and report it.
A: > 100 µM

Q: Look up EC50 of CCN1CCN(C(=O)N[C@H](C)C(=O)N[C@H]2Cc3cccc(C(=O)O)c3OB2O)C(=O)C1=O and report it.
A: < 10 µM

Q: Look up EC50 of C[C@@H](O)[C@@H](NC(=O)N1CCN(CCF)C(=O)C1=O)C(=O)N[C@H]1Cc2cccc(C(=O)O)c2OB1O and report it.
A: < 10 µM

====

# Test system: E. coli DH5α/pLBII
# test: Broth microdilution MIC assay, empty vector control strain
# Assay type: cell-based
# conditions-used: Escherichia coli, read-out: E. coli DH5α/pLBII Microbiological Activity (MIC)
Could you please report measured MIC for the items listed next?

Q: Please report the measured MIC for Nc1nc(C(NC(=O)c2cscn2)C(=O)N[C@H]2Cc3cccc(C(=O)O)c3OB2O)cs1 (stereo partly shown) [Example 16] tested on E. coli DH5α/pLBII.
A: 128 to 256 µg/mL

Q: Please report the measured MIC for CCN1CCN(C(=O)NC(C(=O)N[C@H]2Cc3cccc(C(=O)O)c3OB2O)c2csc(N)n2)C(=O)C1=O (stereo partly shown) [Example 12] tested on E. coli DH5α/pLBII.
A: 8 to 16 µg/mL

Q: Please report the measured MIC for N[C@H](Cc1ccccc1)C(=O)N[C@H]1Cc2cccc(C(=O)O)c2OB1O [Example 1] tested on E. coli DH5α/pLBII.
A: > 512 µg/mL

Q: Please report the measured MIC for Nc1nc(CC(=O)NC(C(=O)N[C@H]2Cc3cccc(C(=O)O)c3OB2O)c2csc(N)n2)cs1 (stereo partly shown) [Example 22] tested on E. coli DH5α/pLBII.
A: 128 to 256 µg/mL

====

So I've got MIC readings for hyper-permeable E. coli 901C, take a look.

Q: Please report the measured MIC for Nc1nc(C(NC(=O)N2CCN(CC(F)F)C(=O)C2=O)C(=O)N[C@H]2Cc3cccc(C(=O)O)c3OB2O)cs1 (stereo partly shown) tested on hyper-permeable E. coli 901C.
A: < 64 mg/L

Q: Please report the measured MIC for NCCN1CCN(C(=O)NC(C(=O)N[C@H]2Cc3cccc(C(=O)O)c3OB2O)c2csc(N)n2)C(=O)C1=O (stereo partly shown) tested on hyper-permeable E. coli 901C.
A: < 64 mg/L

Q: Please report the measured MIC for CCN1CCN(C(=O)N[C@@H](C(=O)N[C@H]2Cc3cccc(C(=O)O)c3OB2O)[C@@H](C)O)C(=O)C1=O tested on hyper-permeable E. coli 901C.
A: < 64 mg/L

Q: Please report the measured MIC for CCN1CCN(C(=O)N[C@@H](C(=O)N[C@H]2Cc3cccc(C(=O)O)c3OB2O)C(C)(C)O)C(=O)C1=O tested on hyper-permeable E. coli 901C.
A: < 64 mg/L

Q: Please report the measured MIC for CCN1CCN(C(=O)NC(C(=O)N[C@H]2Cc3cccc(C(=O)O)c3OB2O)c2csc(N)n2)C(=O)C1=O (stereo partly shown) tested on hyper-permeable E. coli 901C.
A: < 64 mg/L

Q: Please report the measured MIC for CCN1CCN(C(=O)NC(C(=O)N[C@H]2Cc3cccc(C(=O)O)c3OB2O)c2csc(N)n2)CC1=O (stereo partly shown) tested on hyper-permeable E. coli 901C.
A: < 64 mg/L

Q: Please report the measured MIC for Nc1nc([C@H](N)C(=O)N[C@H]2Cc3cccc(C(=O)O)c3OB2O)cs1 tested on hyper-permeable E. coli 901C.
A: > 128 mg/L

Q: Please report the measured MIC for Nc1nc(C(NC(=O)c2cscn2)C(=O)N[C@H]2Cc3cccc(C(=O)O)c3OB2O)cs1 (stereo partly shown) tested on hyper-permeable E. coli 901C.
A: < 64 mg/L

Q: Please report the measured MIC for N[C@@H](C(=O)N[C@H]1Cc2cccc(C(=O)O)c2OB1O)c1ccccc1 tested on hyper-permeable E. coli 901C.
A: > 128 mg/L

Q: Please report the measured MIC for Nc1nc(C(NC(=O)N2CCN(Cc3ccccc3)C(=O)C2=O)C(=O)N[C@H]2Cc3cccc(C(=O)O)c3OB2O)cs1 (stereo partly shown) tested on hyper-permeable E. coli 901C.
A: < 64 mg/L

Q: Please report the measured MIC for N[C@H](C(=O)N[C@H]1Cc2cccc(C(=O)O)c2OB1O)c1ccccc1 tested on hyper-permeable E. coli 901C.
A: 64 to 128 mg/L

Q: Please report the measured MIC for CN(C)C(=O)NC(C(=O)N[C@H]1Cc2cccc(C(=O)O)c2OB1O)c1csc(N)n1 (stereo partly shown) tested on hyper-permeable E. coli 901C.
A: < 64 mg/L

Q: Please report the measured MIC for Nc1nc(C(NC(=O)N2CCN(CC3CC3)C(=O)C2=O)C(=O)N[C@H]2Cc3cccc(C(=O)O)c3OB2O)cs1 (stereo partly shown) tested on hyper-permeable E. coli 901C.
A: < 64 mg/L

Q: Please report the measured MIC for CCN1CCN(C(=O)N[C@H](C(=O)N[C@H]2Cc3cccc(C(=O)O)c3OB2O)[C@H](O)CO)C(=O)C1=O tested on hyper-permeable E. coli 901C.
A: > 128 mg/L

Q: Please report the measured MIC for CCN1CCN(C(=O)N[C@@H](CO)C(=O)N[C@H]2Cc3cccc(C(=O)O)c3OB2O)C(=O)C1=O tested on hyper-permeable E. coli 901C.
A: > 128 mg/L

Q: Please report the measured MIC for CCN1CCN(C(=O)N[C@@H](C(=O)N[C@H]2Cc3cccc(C(=O)O)c3OB2O)[C@H](O)CO)C(=O)C1=O tested on hyper-permeable E. coli 901C.
A: < 64 mg/L

Q: Please report the measured MIC for CCN1CCN(CC(=O)NC(C(=O)N[C@H]2Cc3cccc(C(=O)O)c3OB2O)c2csc(N)n2)C(=O)C1=O (stereo partly shown) tested on hyper-permeable E. coli 901C.
A: < 64 mg/L

Q: Please report the measured MIC for Nc1nc(C(NC(=O)N2CCNC2=O)C(=O)N[C@H]2Cc3cccc(C(=O)O)c3OB2O)cs1 (stereo partly shown) tested on hyper-permeable E. coli 901C.
A: < 64 mg/L

Q: Please report the measured MIC for CCCN1CCN(C(=O)NC(C(=O)N[C@H]2Cc3cccc(C(=O)O)c3OB2O)c2csc(N)n2)C(=O)C1=O (stereo partly shown) tested on hyper-permeable E. coli 901C.
A: < 64 mg/L

Q: Please report the measured MIC for COC(=O)CCNC(=O)NC(C(=O)N[C@H]1Cc2cccc(C(=O)O)c2OB1O)c1csc(N)n1 (stereo partly shown) tested on hyper-permeable E. coli 901C.
A: < 64 mg/L

Q: Please report the measured MIC for CCN1CCN(C(=O)N[C@H](Cc2c[nH]cn2)C(=O)N[C@H]2Cc3cccc(C(=O)O)c3OB2O)C(=O)C1=O tested on hyper-permeable E. coli 901C.
A: 64 to 128 mg/L

Q: Please report the measured MIC for Nc1nc(C(NC(=O)N2CCN(CCCF)C(=O)C2=O)C(=O)N[C@H]2Cc3cccc(C(=O)O)c3OB2O)cs1 (stereo partly shown) tested on hyper-permeable E. coli 901C.
A: < 64 mg/L
